The molecules listed here are annotated with their inhibition at 10 µM.
- system: human C-terminal DNMT3A (a.a. 623-908) (Homo sapiens)
- Construct: The human C-terminal DNMT3A (a.a. 623-908); made in house
- Sequence (Q9Y6K1 627-912 limits assumed): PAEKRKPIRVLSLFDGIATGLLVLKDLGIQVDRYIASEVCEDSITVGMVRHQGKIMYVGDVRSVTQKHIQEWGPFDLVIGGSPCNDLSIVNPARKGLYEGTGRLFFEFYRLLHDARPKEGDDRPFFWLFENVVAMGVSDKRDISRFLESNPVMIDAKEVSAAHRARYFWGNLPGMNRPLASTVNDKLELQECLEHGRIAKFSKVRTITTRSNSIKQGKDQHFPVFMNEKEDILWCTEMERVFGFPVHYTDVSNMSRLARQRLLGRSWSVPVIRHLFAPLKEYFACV
- test-name: DNMT3A assay (restriction-based fluorescence)
- Type: biochemical
- measurement-setup: compound at 10 μM; read-out: DNMT3A (% of inhibition) 10 μM
Numbers only; they are read as %.

O=c1c2ccc(OCC3CCN(CCNc4ccnc5ccccc45)CC3)cc2ncn1CCNc1ccnc2ccccc12
89

Now examine the next entry.
// Input: c1ccc(CCCNc2ncnc3cc(OCCCNCCCNc4ccnc5ccccc45)ccc23)cc1 . Output its inhibition at 10 µM only.
60
